- assay.protocol: Kinetic solubility in FeSSIF and FaSSIF
- Format: physicochemical
- condition: fasted state simulated intestinal fluid (FaSSIF), fassif, thermodynamic from solid, time point 24 h, RT
reported.property: solubility at 24 h (µg/mL)
Reply numerically in µg/mL, unit not repeated.

Inquiry: Data request, read-out solubility at 24 h, for Cc1ccc([C@@H]2O[C@H](CO)[C@@H](O)[C@H](O)[C@H]2O)cc1Cc1ccc(-c2ccc(F)cc2)s1 [Form B]
Reply text: 480

* * *

- assay.protocol: Kinetic solubility in FeSSIF and FaSSIF
- Format: physicochemical
- condition: fasted state simulated intestinal fluid (FaSSIF), fassif, thermodynamic from solid, time point 4 h, RT
reported.property: solubility at 4 h (µg/mL)
Give just the number in µg/mL; leave the unit off.

Inquiry: For the compound Cc1ccc([C@@H]2O[C@H](CO)[C@@H](O)[C@H](O)[C@H]2O)cc1Cc1ccc(-c2ccc(F)cc2)s1 [Form B] , what solubility at 4 h is on record?
Reply text: 510

* * *

- assay.protocol: Kinetic solubility in FeSSIF and FaSSIF
- Type: physicochemical
- condition: fed state simulated intestinal fluid (FeSSIF), fessif, thermodynamic from solid, time point 4 h, RT
reported.property: solubility at 4 h (µg/mL)
Report as a plain number; the unit µg/mL is understood.

Inquiry: Dear colleague, I am looking for the recorded solubility at 4 h of the following molecule: Cc1ccc([C@@H]2O[C@H](CO)[C@@H](O)[C@H](O)[C@H]2O)cc1Cc1ccc(-c2ccc(F)cc2)s1 [Form B]
Reply text: 4760

* * *

- assay.protocol: Kinetic solubility in FeSSIF and FaSSIF
- Assay type: physicochemical
- condition: fasted state simulated intestinal fluid (FaSSIF), fassif, thermodynamic from solid, time point 1 h, RT
reported.property: solubility at 1 h (µg/mL)
Value expressed in µg/mL; do not type the unit.

Inquiry: Report solubility at 1 h for Cc1ccc([C@@H]2O[C@H](CO)[C@@H](O)[C@H](O)[C@H]2O)cc1Cc1ccc(-c2ccc(F)cc2)s1 [Form B] please.
Reply text: 500

* * *

- assay.protocol: Kinetic solubility in FeSSIF and FaSSIF
- Format: physicochemical
- condition: fed state simulated intestinal fluid (FeSSIF), fessif, thermodynamic from solid, time point 1 h, RT
- Description: Kinetic solubility of canagliflozin in crystalline Form B and its hemihydrate form in fed state simulated intestinal fluid (FeSSIF) and fasted state simulated intestinal fluid (FaSSIF) were measured using the following procedures: 1. Weighed approximately 30 mg of compound into a tared 4 mL plastic vial and recorded the actual weight of the compound. 2. Added 3 mL of water or bio-relevant medium into each vial. 3. […]
reported.property: solubility at 1 h (mg/mL)
Give the value in mg/mL but do not write mg/mL after it.

Inquiry: solubility at 1 h lookup needed for Cc1ccc([C@@H]2O[C@H](CO)[C@@H](O)[C@H](O)[C@H]2O)cc1Cc1ccc(-c2ccc(F)cc2)s1 [Form B] , thanks.
Reply text: 4.72
